All figures here come from ChEMBL document CHEMBL1201862.

tested on: U-251; assay: NCI tumour cell line growth inhibition, 48 h
The source made the active and inactive calls. Cut-off read from the data, not from the text of the source: active = GI50 up to about 1.1 µM and inactive = higher.
Attribute Measured: GI50

-- ask Report GI50, nothing else, for this molecule: COC(=O)C(C(=O)C(=O)Nc1ccc([N+](=O)[O-])cc1)c1nc2ccc([N+](=O)[O-])cc2nc1O (stereo not given)
-- reply > 100 µM (inactive)

-- ask Report GI50, nothing else, for this molecule: COc1ccc2nc3cc(Cl)ccc3c(NCCCNCc3cc(OC)c(OC)c(OC)c3)c2c1
-- reply 1.76 µM (inactive)

-- ask Report GI50, nothing else, for this molecule: COC(=O)C1=C2CCC(=O)[C@@]2(C)C(OC(C)=O)C=CC1 (stereo not given in full)
-- reply 59.6 µM (inactive)

-- ask Report GI50, nothing else, for this molecule: COc1ccc2nc3cc(Cl)ccc3c(Sc3ccc([N+](=O)[O-])cc3C)c2c1
-- reply > 100 µM (inactive)

-- ask Report GI50, nothing else, for this molecule: CCCCSCC(NC(=O)/C=C/c1c(C)[nH]c(=O)[nH]c1=O)C(=O)OC (stereo not given)
-- reply 16.6 µM (inactive)

-- ask Report GI50, nothing else, for this molecule: O=S(=O)(OI(O)CC(F)(F)F)C(F)(F)F
-- reply > 100 µM (inactive)

-- ask Report GI50, nothing else, for this molecule: COc1cc(/C=N/n2c(-c3ccccc3)n[nH]c2=O)cc(OC)c1OC
-- reply 3.93 µM (inactive)

-- ask Report GI50, nothing else, for this molecule: Cc1ccc(C)c(NC(=O)CC/C(=N\NC(=O)C(N)=O)C(C)C(=O)c2ccc(O)cc2)c1 (stereo not given)
-- reply > 100 µM (inactive)

-- ask Report GI50, nothing else, for this molecule: O=C(NCCNCCNC(=O)c1cc(-c2ccccc2)nc2ccccc12)c1cc(-c2ccccc2)nc2ccccc12
-- reply 2.08 µM (inactive)

-- ask Report GI50, nothing else, for this molecule: O=C(NCCCCCCCCNC(=O)c1cnc2ccccc2n1)c1cnc2ccccc2n1
-- reply > 100 µM (inactive)

---

tested on: NCI-H23; assay: NCI tumour cell line growth inhibition, 48 h
Calls of active or inactive are those of the source. No stated cut-off is given here; in the data, active = GI50 up to about 1.1 µM and inactive = higher. Non-standard residues stand in square brackets, D forms with d. Residues, ends and D or L forms follow the SMILES beside them. ξ: configuration not given here. *: point of attachment. NMeF = CN[C@@H](Cc1ccccc1)C(=O)O; ξNMeV = CNC(C(=O)O)C(C)C; Boc = CC(C)(C)OC(=O)*; OBn = c1ccc(CO*)cc1
Your response should consist of one outcome taken from T for active, F for inactive

-- ask Any idea what this test logged for CC(C)C(C(=O)N1CCC[C@@H]1C(=O)OCc1ccccc1)N(C)C(=O)C(C(C)C)N(C)C(=O)[C@H](Cc1ccccc1)N(C)C(=O)[C@H](NC(=O)OC(C)(C)C)C(C)C (some centres undefined) (Boc-[dV][NMeF][ξNMeV][ξNMeV][dP]-OBn) ?
-- reply F

-- ask Any idea what this test logged for CC(=N\N)/C(C)=N/N=C(C)/C(C)=N/N ?
-- reply F

-- ask Any idea what this test logged for [O-][n+]1ccccc1S [PYRITHIONE ZINC] ?
-- reply F

-- ask Any idea what this test logged for Cc1ccccc1N/C(N)=N/C#N ?
-- reply F

-- ask Any idea what this test logged for CCC(=O)NC(Nc1cc(C)on1)(C(F)(F)F)C(F)(F)F ?
-- reply F

-- ask Any idea what this test logged for O=C(CC(c1ccccc1)C1C(=O)NC(=S)NC1=O)c1ccc([N+](=O)[O-])cc1 (centres undefined) ?
-- reply F

-- ask Any idea what this test logged for NCCSCc1ccccc1Cl ?
-- reply F

-- ask Any idea what this test logged for CC[C@@]1(O)C(=O)OCc2c1cc1n(c2=O)Cc2c-1nc1ccccc1c2/C=N\NC(=O)C(N)=O ?
-- reply T

-- ask Any idea what this test logged for COC(=O)/C1=C/c2c([nH]c3ccccc23)/C(C(=O)OC)=C\c2c1[nH]c1ccccc21 [CAULERPIN] ?
-- reply F
